Target: αIIbβ3 (Homo sapiens, UniProt P05106+P08514)
Sequence (P08514 32-887 limits assumed): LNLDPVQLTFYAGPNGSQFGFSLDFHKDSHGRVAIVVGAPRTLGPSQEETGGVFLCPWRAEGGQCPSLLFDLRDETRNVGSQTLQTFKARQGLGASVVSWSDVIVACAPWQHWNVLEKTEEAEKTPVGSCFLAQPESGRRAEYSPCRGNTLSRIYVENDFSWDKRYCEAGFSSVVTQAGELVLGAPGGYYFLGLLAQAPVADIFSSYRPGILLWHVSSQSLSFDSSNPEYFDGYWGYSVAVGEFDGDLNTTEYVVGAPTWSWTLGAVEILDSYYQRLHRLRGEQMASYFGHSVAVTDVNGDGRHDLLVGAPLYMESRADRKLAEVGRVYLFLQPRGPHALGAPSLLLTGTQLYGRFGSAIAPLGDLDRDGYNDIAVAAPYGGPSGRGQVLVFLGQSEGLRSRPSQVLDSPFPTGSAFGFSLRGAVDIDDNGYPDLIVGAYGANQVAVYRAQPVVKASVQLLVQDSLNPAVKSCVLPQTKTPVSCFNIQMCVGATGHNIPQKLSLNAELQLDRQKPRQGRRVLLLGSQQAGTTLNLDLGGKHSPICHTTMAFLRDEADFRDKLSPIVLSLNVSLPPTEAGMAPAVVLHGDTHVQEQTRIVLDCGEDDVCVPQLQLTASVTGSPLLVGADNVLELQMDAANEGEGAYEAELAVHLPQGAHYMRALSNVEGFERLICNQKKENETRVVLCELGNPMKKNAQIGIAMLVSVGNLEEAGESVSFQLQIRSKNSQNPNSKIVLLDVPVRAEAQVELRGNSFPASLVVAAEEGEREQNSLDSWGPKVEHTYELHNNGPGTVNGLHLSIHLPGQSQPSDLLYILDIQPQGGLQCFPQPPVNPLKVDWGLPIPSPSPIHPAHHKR
Sequence (P08514 891-1039 partner limits assumed): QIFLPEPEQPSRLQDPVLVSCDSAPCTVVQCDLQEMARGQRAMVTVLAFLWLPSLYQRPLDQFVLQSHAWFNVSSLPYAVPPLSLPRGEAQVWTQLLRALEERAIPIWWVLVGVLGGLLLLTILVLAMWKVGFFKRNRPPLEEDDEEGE
Sequence (P05106 27-788): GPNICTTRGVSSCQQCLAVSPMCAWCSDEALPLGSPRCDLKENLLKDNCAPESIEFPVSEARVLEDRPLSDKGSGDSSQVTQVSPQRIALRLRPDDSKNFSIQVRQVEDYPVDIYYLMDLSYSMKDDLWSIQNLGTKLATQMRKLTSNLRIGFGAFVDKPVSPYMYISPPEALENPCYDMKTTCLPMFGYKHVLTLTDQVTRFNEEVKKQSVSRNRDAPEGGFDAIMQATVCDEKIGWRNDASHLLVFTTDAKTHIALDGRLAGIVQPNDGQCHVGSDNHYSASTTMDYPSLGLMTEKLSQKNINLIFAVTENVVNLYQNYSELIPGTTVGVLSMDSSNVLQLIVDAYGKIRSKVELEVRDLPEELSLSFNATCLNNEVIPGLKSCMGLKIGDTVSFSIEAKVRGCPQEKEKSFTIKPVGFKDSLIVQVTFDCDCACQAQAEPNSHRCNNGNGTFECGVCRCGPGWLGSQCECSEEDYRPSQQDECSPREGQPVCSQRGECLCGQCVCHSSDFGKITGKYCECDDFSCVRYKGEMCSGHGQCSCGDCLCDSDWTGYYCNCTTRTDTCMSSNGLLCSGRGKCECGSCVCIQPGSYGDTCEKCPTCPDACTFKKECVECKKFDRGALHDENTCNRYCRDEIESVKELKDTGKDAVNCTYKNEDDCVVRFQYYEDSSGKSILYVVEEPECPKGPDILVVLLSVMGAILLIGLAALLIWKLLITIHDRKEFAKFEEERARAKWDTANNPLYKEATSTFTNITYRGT
Assay: Displacement of labeled Hr10 binding to inactive or PT-25-activated αIIbβ3-K562 cells (FACS)
Set-up: expressed in transfected cells; host or cells: K562
Conditions: inactive αIIbβ3; Alexa488-labeled Hr10; 1 mM Mg2+ and Ca2+; read-out: IC50, displacement of labeled Hr10 binding to inactive αIIbβ3-K562
Test readout: pIC50
// pIC50: -log10(molar conc.)

IN: Please look up its pIC50: O=C(N[C@@H](Cc1ccc(OCCCCC2CCNCC2)cc1)C(=O)O)c1nc2ccccc2o1 [M-tirofiban]
OUT: 6.59
